- measured_on: Full length human CD40 (huCD40) on cells (human, UniProt P25942 21-277)
- Sequence (P25942 21-277): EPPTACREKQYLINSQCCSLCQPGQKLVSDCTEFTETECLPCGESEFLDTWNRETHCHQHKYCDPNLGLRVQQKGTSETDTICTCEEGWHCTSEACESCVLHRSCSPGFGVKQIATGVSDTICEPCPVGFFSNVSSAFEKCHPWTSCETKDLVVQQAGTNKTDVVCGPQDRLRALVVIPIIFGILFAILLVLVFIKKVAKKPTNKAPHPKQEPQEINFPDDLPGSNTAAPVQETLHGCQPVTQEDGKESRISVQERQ
- measurement_protocol: cell-based or functional assay
measurement_kind: B cells EC50, CD86 surface expression, with cross-linker (ng/mL)

binder="C40M9 (antibody, human IgG1, lambda, V domains shown) VH: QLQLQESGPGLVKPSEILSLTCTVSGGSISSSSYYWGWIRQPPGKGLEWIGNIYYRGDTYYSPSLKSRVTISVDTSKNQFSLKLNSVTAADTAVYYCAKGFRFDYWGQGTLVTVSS VL: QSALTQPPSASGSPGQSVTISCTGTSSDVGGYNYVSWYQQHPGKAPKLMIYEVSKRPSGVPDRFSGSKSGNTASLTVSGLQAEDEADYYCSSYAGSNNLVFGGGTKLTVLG" numeric_value=0.0109
